- System: alternansucrase
- experiment_notes: Comparison of acceptor strengths with alternansucrase, relative amount of alternan formed
- condition_description: 45 μL 10% (w/v) sucrose, 45 μL 10% (w/v) acceptor, 10 μL alternansucrase, pH 5.4, room temperature; less alternan = stronger acceptor
metric_name: Alternan (Rel. %)
Express it in Rel. %; write the number only.

Would you please look over these solved cases?
OC[C@H]1O[C@@H](O[C@H]2[C@H](O)[C@@H](O)C(O)O[C@@H]2CO)[C@H](O)[C@@H](O)[C@H]1O (stereo partly drawn) = 79
OC[C@H]1O[C@H](OC[C@H]2O[C@@](CO)(O[C@H]3O[C@H](CO)[C@@H](O)[C@H](O)[C@H]3O)[C@@H](O)[C@@H]2O)[C@H](O)[C@@H](O)[C@H]1O = 76

Now, please, on to the next compound.
### Prompt # return recorded Alternan (Rel. %) for entry "OC[C@H]1O[C@H](O[C@H]2O[C@H](CO)[C@@H](O)[C@H](O)[C@H]2O)[C@H](O)[C@@H](O)[C@@H]1O"
### Response 102

Sourced from patent US7182954B1
